Origin of measurements: ChEMBL document CHEMBL5107945

# RUN DESCRIPTION: Inhibition of ConA-induced IL-4 secretion in BALB/c mouse splenocyte at 10 uM incubated for 48 hrs by ELISA relative to control
# Format: functional
# label = 1.0 if inhibition at 10 µM >= 60% else 0.0

{"columns": ["COMPOUND", "GROUP LABEL"],
 "data": [
  ["COc1c(OCc2ccccc2)cc2c(c1OCc1ccccc1)[C@@H]1O[C@@H]3CO[C@@H](c4ccccc4)O[C@H]3[C@@H](OS(=O)(=O)C(F)(F)F)[C@H]1OC2=O", 1.0],
  ["CCCCCCCOc1cc2c(c(OCCCCCCC)c1OC)[C@@H]1O[C@H](COCc3ccccc3)[C@@H](O)[C@H](O)[C@H]1OC2=O", 1.0],
  ["COc1c(O)cc2c(c1O)[C@@H]1O[C@H](CO)[C@@H](O)[C@H](O)[C@H]1OC2=O [BERGENIN]", 0.0],
  ["CCCCCCCOc1cc2c(c(OCCCCCCC)c1OC)[C@@H]1O[C@H](CO)[C@@H](OCc3ccccc3)[C@H](O)[C@H]1OC2=O", 0.0],
  ["COc1c(OCc2ccccc2)cc2c(c1OCc1ccccc1)[C@@H]1O[C@@H]3CO[C@@H](c4ccccc4)O[C@H]3[C@H](NS(C)(=O)=O)[C@H]1OC2=O", 1.0]
]}

Let us examine a further case.
Does CCCCCCOc1cc2c(c(OCCCCCC)c1OC)[C@@H]1O[C@H](CO)[C@@H](O)[C@H](O)[C@H]1OC2=O have a reported inhibition at 10 µM of at least 60%? 1.0

###

# RUN DESCRIPTION: Selectivity index, ratio of IC50 for cytotoxicity against human Jurkat cells to IC50 for inhibition of ConA-induced proliferation of BALB/c mouse splenocyte
# Assay type: toxicity, cell-based
# CONDITION PARAMETERS: mouse (splenocytes), ConA-stimulated mouse splenocytes, read-out: Ratio IC50
ENDPOINT NAME: selectivity ratio
Form: value (number only, do not type unit).

{"columns": ["STRUCTURE SMILES STRING", "MEASURED NUMBER"],
 "data": [
  ["COc1c(OCc2ccccc2)cc2c(c1OCc1ccccc1)[C@@H]1O[C@@H]3CO[C@@H](c4ccccc4)O[C@H]3[C@H](NS(C)(=O)=O)[C@H]1OC2=O", 6]
]}

Kindly review the next compound as well.
Looking for the measured selectivity ratio of COc1c(OCc2ccccc2)cc2c(c1OCc1ccccc1)[C@@H]1O[C@@H]3CO[C@@H](c4ccccc4)O[C@H]3[C@H](O)[C@H]1OC2=O , can you help? 5.96

###

# RUN DESCRIPTION: Cytotoxicity against human Jurkat cells assessed as reduction in cell viability incubated for 48 hrs by CCK-8 assay
# Type: toxicity, cell-based
Threshold 20 µM: IC50 at 48 h strictly smaller gives y, otherwise n.

Examples with answers:
{"columns": ["STRUCTURE SMILES STRING", "GROUP LABEL"],
 "data": [
  ["CCCCCCCOc1cc2c(c(OCCCCCCC)c1OC)[C@@H]1O[C@H](CO)[C@@H](O)[C@H](O)[C@H]1OC2=O", "y"],
  ["COc1c(OCc2ccccc2)cc2c(c1OCc1ccccc1)[C@@H]1O[C@@H]3CO[C@@H](c4ccccc4)O[C@H]3[C@H](O)[C@H]1OC2=O", "n"],
  ["CCCCCCOc1cc2c(c(OCCCCCC)c1OC)[C@@H]1O[C@H](CO)[C@@H](O)[C@H](O)[C@H]1OC2=O", "y"]
]}

Please indicate whether the reported IC50 at 48 h of COc1c(OCc2ccccc2)cc2c(c1OCc1ccccc1)[C@@H]1O[C@@H]3CO[C@@H](c4ccccc4)O[C@H]3[C@H](N)[C@H]1OC2=O is strictly below 20 µM. n

Record CCCCCCCOc1cc2c(c(OCCCCCCC)c1OC)[C@@H]1O[C@H](COCc3ccccc3)[C@@H](O)[C@H](O)[C@H]1OC2=O : is its IC50 at 48 h strictly below 20 µM? y

Just wondering, is IC50 at 48 h of COc1c(OCc2ccccc2)cc2c(c1OCc1ccccc1)[C@@H]1O[C@@H]3CO[C@@H](c4ccccc4)O[C@H]3[C@H](NS(C)(=O)=O)[C@H]1OC2=O below 20 µM? n

Could you please tell me whether IC50 at 48 h recorded for CCCCCCCOc1cc2c(c(OCCCCCCC)c1OC)[C@@H]1O[C@H](CO)[C@@H](OCc3ccccc3)[C@H](O)[C@H]1OC2=O is less than 20 µM? y

Lab note: confirm whether the reported IC50 at 48 h for this compound is below 20 µM, equality not counting. compound: COc1c(OCc2ccccc2)cc2c(c1OCc1ccccc1)[C@@H]1O[C@@H]3CO[C@@H](c4ccccc4)O[C@H]3[C@@H](OS(=O)(=O)C(F)(F)F)[C@H]1OC2=O n
